Test: Pharmacokinetic study after oral administration to rats
Settings: rat, in vivo, 10 mg/kg (Compound 1 basis), oral suspension
Assay Endpoint: half-life (h)

                            compound_string  observed_result
0  CCn1c(=O)c(-c2cc(NC(=O)Nc3ccccc3)c(F)cc2Br)cc2cnc(NC)cc21             8.76

----------
Experiment: Kinetic aqueous solubility at select pH
Type: physicochemical
Conditions: aqueous medium, simulated gastric fluid, kinetic from dmso stock; pH 2, aqueous, 25° C.
Assay Endpoint: solubility kinetic

>>> print(df.to_string())
                                   compound      assay_endpoint  observed_result
0  CCn1c(=O)c(-c2cc(NC(=O)Nc3ccccc3)c(F)cc2Br)cc2cnc(NC)cc21 [Crystalline Compound 1]  solubility kinetic          6 µg/mL

----------
Experiment: Pharmacokinetic study after oral administration to rats
Details: rat, in vivo, 10 mg/kg (Compound 1 basis), oral suspension
Assay Endpoint: Tmax (h)

>>> df
                            compound_string  assay_endpoint  value_unit  observed_result
0  CCn1c(=O)c(-c2cc(NC(=O)Nc3ccccc3)c(F)cc2Br)cc2cnc(NC)cc21            Tmax           h             1.67

----------
Assay: Kinetic aqueous solubility at select pH
Format: physicochemical
Conditions: aqueous medium, aqueous buffer, kinetic from dmso stock; pH 6.5, aqueous, 25° C.
Assay Endpoint: solubility kinetic (µg/mL)

>>> print(df.to_string())
                            compound_string  observed_result
0  CCn1c(=O)c(-c2cc(NC(=O)Nc3ccccc3)c(F)cc2Br)cc2cnc(NC)cc21                1

----------
Assay: Pharmacokinetic study after oral administration to rats
Conditions: rat, in vivo, 10 mg/kg (Compound 1 basis), oral suspension
Assay Endpoint: AUC(0-inf)

                            compound_string  observed_result
0  CCn1c(=O)c(-c2cc(NC(=O)Nc3ccccc3)c(F)cc2Br)cc2cnc(NC)cc21      131 ng·h/mL
